Assay: Cytotoxicity against human HepG2 cells incubated for 40 hrs by celltiter-glo luminescent cell viability assay
Format: toxicity, cell-based
# Lookup of reported IC50 at 40 h keyed by entry
The figure you give is taken to be in µg/mL; do not add the unit.

compound structure string: CC(C)[C@H](NC(=O)[C@H](CCC(=O)O)NC(=O)[C@H](Cc1ccccc1)NC(=O)[C@@H](CCN)NC(=O)[C@H](CCN)NC(=O)[C@H](CO)NC(=O)[C@@H](Cc1c[nH]c2ccccc12)NC(=O)[C@@H](CO)NC(=O)CNC(=O)[C@@H](CCN)NC(=O)[C@H](NC(=O)[C@H](C)N)C(C)C)C(=O)N[C@@H](C(=O)N[C@@H](C)C(=O)O)C(C)(C)C
IC50 at 40 h [µg/mL]: 23
//
compound structure string: CC[C@H](C)[C@@H](NC(=O)[C@@H](NC(=O)[C@H](CCC(=O)O)NC(=O)[C@H](Cc1ccccc1)NC(=O)[C@@H](CCN)NC(=O)[C@H](CCN)NC(=O)[C@H](CO)NC(=O)[C@@H](Cc1c[nH]c2ccccc12)NC(=O)[C@@H](CO)NC(=O)CNC(=O)[C@@H](CN)NC(=O)[C@H](N)C(C)C)C(C)C)C(=O)N[C@@H](C)C(=O)O
IC50 at 40 h [µg/mL]: 125

Give IC50 at 40 h for CC[C@H](C)[C@@H](NC(=O)[C@H](CC1CCCCC1)NC(=O)[C@H](CCC(=O)O)NC(=O)[C@H](Cc1ccccc1)NC(=O)[C@@H](CCN)NC(=O)[C@H](CCN)NC(=O)[C@H](CO)NC(=O)[C@@H](Cc1c[nH]c2ccccc12)NC(=O)[C@@H](CO)NC(=O)CNC(=O)[C@@H](CCN)NC(=O)[C@H](NC(=O)[C@H](C)N)C(C)C)C(=O)N[C@@H](C)C(=O)O
9
